Target: Cloned Human Dopamine D3 Receptors (Homo sapiens, UniProt P35462)
Construct: expressed in transfected cells; membrane homogenate
Sequence (P35462 whole entry): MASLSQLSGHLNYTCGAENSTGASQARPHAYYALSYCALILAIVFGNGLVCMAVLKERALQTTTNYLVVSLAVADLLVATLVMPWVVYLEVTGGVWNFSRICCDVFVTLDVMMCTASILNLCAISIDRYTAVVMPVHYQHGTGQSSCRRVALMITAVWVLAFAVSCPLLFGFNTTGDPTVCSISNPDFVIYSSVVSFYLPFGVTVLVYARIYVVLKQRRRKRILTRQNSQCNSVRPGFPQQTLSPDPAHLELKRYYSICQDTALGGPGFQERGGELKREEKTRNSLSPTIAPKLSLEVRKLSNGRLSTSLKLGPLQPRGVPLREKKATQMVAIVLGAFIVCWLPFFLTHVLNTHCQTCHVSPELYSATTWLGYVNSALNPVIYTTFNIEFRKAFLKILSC
Assay: [N-Methyl-3H]Spiroperidol binding to cloned human dopamine D3 receptors
Conditions: read-out: d3Ki
pKi: −log10 of the molar value.
# Lookup of reported pKi keyed by entry
measurement_name: pKi

substance_smiles=O=C(NCc1ccc2c(c1)OCO2)[C@@H]1CCCC[C@H]1CN1CCN(c2csc3cc(C(F)(F)F)ccc23)CC1 study_system="Cloned Human Dopamine D3 Receptors (Homo sapiens, UniProt P35462)" measurement_name=pKi assay_value=6.35
substance_smiles=CCOC(=O)[C@H]1CCCC[C@@H]1NC(=O)[C@@H]1C[C@H]1CN1CCN(c2csc3cc(C(F)(F)F)ccc23)CC1 study_system="Cloned Human Dopamine D3 Receptors (Homo sapiens, UniProt P35462)" measurement_name=pKi assay_value=7.30
substance_smiles=O=C(NCc1ccco1)[C@@H]1CCCC[C@@H]1CN1CCN(c2csc3cc(C(F)(F)F)ccc23)CC1 study_system="Cloned Human Dopamine D3 Receptors (Homo sapiens, UniProt P35462)" measurement_name=pKi assay_value=6.89
substance_smiles=CC[C@H]1CC[C@H](NC(=O)[C@@H]2C[C@H]2CN2CCN(c3ccccc3OC)CC2)CC1 study_system="Cloned Human Dopamine D3 Receptors (Homo sapiens, UniProt P35462)" measurement_name=pKi assay_value=8.91

* * *

Target: Cloned Human Dopamine D3 Receptors (Homo sapiens)
Construct: expressed in transfected cells; membrane homogenate
Test: [N-Methyl-3H]Spiroperidol binding to cloned human dopamine D3 receptors
Details: D3 Ki (nM)
For each record, check the reported Ki: if it is below 40 nM write true, else write false.

compound="O=C(NC1CCN(CC2CCCCC2)CC1)C1CC1CN1CCC(c2noc3ccsc23)CC1 (stereo not drawn)" group=true
compound="O=C(NC1CCN(Cc2cc(F)ccc2F)CC1)C1CC1CN1CCC(c2noc3ccsc23)CC1 (stereo not drawn)" group=true
compound="CCC1CCC(NC(=O)C2CC2CN2CCC(c3nn(-c4ccc(C(F)(F)F)cc4)c4ccccc34)CC2)CC1 (stereo not drawn)" group=false
compound=O=C(NCCCn1ccnc1)[C@@H]1C[C@H]1CN1CCC(c2nn(-c3ccc(C(F)(F)F)cc3)c3ccccc23)CC1 group=true
compound=C[C@H]1CC[C@H](NC(=O)[C@@H]2C[C@H]2CN2CCN(c3noc4ccsc34)CC2)CC1 group=true
compound="CN1CCCC1CCNC(=O)C1CC1CN1CCN(c2csc3cc(C(F)(F)F)ccc23)CC1 (stereo not drawn)" group=false

* * *

Target: Cloned Human Dopamine D3 Receptors (Homo sapiens, UniProt P35462)
Construct: expressed in transfected cells; membrane homogenate
Assay: [N-Methyl-3H]Spiroperidol binding to cloned human dopamine D3 receptors
Conditions: Table 2 part the 10th table; read-out: d3Ki
measurement_name: Ki

compound=O=C([C@@H]1C[C@H]1CN1CCN(c2csc3cc(F)ccc23)CC1)N1CCCCC1 measurement_name=Ki assay_value="2 nM"
compound="NC(=O)C1CCCN(C(=O)[C@@H]2C[C@H]2CN2CCN(c3csc4cc(C(F)(F)F)ccc34)CC2)C1 (stereo partly shown)" measurement_name=Ki assay_value="39.4 nM"
compound="CC1CC(C)CN(C(=O)CCCN2CCN(c3csc4cc(F)ccc34)CC2Cc2ccccc2)C1 (stereo not shown)" measurement_name=Ki assay_value="144 nM"
compound="O=C(CCCN1CCN(c2csc3cc(F)ccc23)CC1Cc1ccccc1)N1CCC(O)CC1 (stereo not shown)" measurement_name=Ki assay_value="84 nM"

* * *

Target: Cloned Human Dopamine D3 Receptors (Homo sapiens, UniProt P35462)
Construct: expressed in transfected cells; membrane homogenate
Assay: [N-Methyl-3H]Spiroperidol binding to cloned human dopamine D3 receptors
Conditions: Table 2; unit inferred; read-out: d3Ki
For each record, check the reported Ki: if it is below 30 nM write 1 (yes), else write 0 (no).

compound="CN(C(=O)CCCCN1CCN(c2csc3cc(F)ccc23)CC1)c1ccc(C(C)(C)C)cc1 [compound 822140]" group="1 (yes)"
compound="C[C@@]1(C(=O)NCc2ccc3c(c2)OCO3)C[C@H]1CN1CCN(c2csc3cc(C(F)(F)F)ccc23)CC1 [compound 825886]" group="0 (no)"
compound="CCCc1cc(N2CCCN(C[C@@H]3C[C@H]3C(=O)N[C@H]3CC[C@H](C)CC3)CC2)nc(C(C)(C)C)n1 [compound 817273]" group="1 (yes)"
compound="Cc1cccc(CNC(=O)[C@@H]2C[C@H]2CN2CCN(c3csc4cc(C(F)(F)F)ccc34)CC2)c1 [compound 826072]" group="0 (no)"
compound="CCCc1cc(N2CCCN(C[C@@H]3C[C@H]3C(=O)N[C@H]3CC[C@H](CC)CC3)CC2)nc(C(C)(C)C)n1 [compound 817272]" group="1 (yes)"
compound="C[C@@]1(C(=O)NCc2ccccc2)C[C@H]1CN1CCN(c2csc3cc(C(F)(F)F)ccc23)CC1 [compound 825896]" group="0 (no)"
compound="CC[C@H]1CC[C@H](NC(=O)[C@@H]2C[C@H]2CN2CCCN(c3cnccn3)CC2)CC1 [compound 817568]" group="0 (no)"
compound="CC[C@H]1CC[C@H](NC(=O)CCCN2CCN(c3csc4cc(F)ccc34)CC2CCCc2ccccc2)CC1 (some centres unmarked) [compound 827107]" group="0 (no)"
compound="C[C@@]1(C(=O)NCc2ccc(C(F)(F)F)cc2)C[C@H]1CN1CCN(c2csc3cc(C(F)(F)F)ccc23)CC1 [compound 825899]" group="0 (no)"
compound="C[C@H]1CC[C@H](NC(=O)[C@@H]2C[C@H]2CN2CCN(c3csc4cc(C(F)(F)F)ccc34)CC2)CC1 [817569A]" group="1 (yes)"
compound="CCC1CCC(NC(=O)C2CC2CN2CCN(c3ccc(C(F)(F)F)cc3)CC2)CC1 (centres unmarked) [817043A]" group="1 (yes)"
compound="CN(C(=O)CCCCN1CCN(c2csc3cc(F)ccc23)CC1)c1cccc(Oc2ccccc2)c1 [compound 822142]" group="0 (no)"
compound="Cc1ccccc1N1CCN(C[C@@H]2C[C@H]2C(=O)N[C@H]2CC[C@H](C)CC2)CC1 [817478A]" group="1 (yes)"
compound="COc1ccc(N(C)C(=O)CCCCN2CCN(c3csc4cc(F)ccc34)CC2)cc1 [compound 822131]" group="0 (no)"
compound="CC(C)(C)c1ccc(NC(=O)CCCCN2CCN(c3csc4cc(F)ccc34)CC2)cc1 [compound 822136]" group="0 (no)"
compound="O=C(CCCCN1CCN(c2csc3cc(F)ccc23)CC1)Nc1cccc(Oc2ccccc2)c1 [compound 822137]" group="0 (no)"
compound="CCN(CC)C(=O)[C@H]1CC[C@H](NC(=O)[C@@H]2C[C@H]2CN2CCN(c3csc4cc(C(F)(F)F)ccc34)CC2)CC1 [compound 817048]" group="1 (yes)"
compound="C[C@H](NC(=O)[C@@H]1C[C@H]1CN1CCN(c2csc3cc(C(F)(F)F)ccc23)CC1)c1ccccc1 [compound 826074]" group="0 (no)"
compound="CC1CCC(NC(=O)C2CC2CN2CCN(c3ccc(C(F)(F)F)cc3)CC2)CC1 (centres unmarked) [817039A]" group="0 (no)"
compound="O=C(CCCN1CCN(c2csc3cc(F)ccc23)CC1)Nc1cccc(Oc2ccccc2)c1 [compound 822148]" group="0 (no)"
compound="O=C([C@@H]1C[C@H]1CN1CCN(c2csc3cc(C(F)(F)F)ccc23)CC1)N(c1ccccc1)C1CCCCC1 [compound 826886]" group="0 (no)"
compound="CC[C@H]1CC[C@H](NC(=O)[C@@H]2C[C@H]2CN2CCCN(c3ccc(C)cn3)CC2)CC1 [compound 827732]" group="1 (yes)"
compound="C[C@@]1(C(=O)NCc2nc3ccccc3[nH]2)C[C@H]1CN1CCN(c2csc3cc(C(F)(F)F)ccc23)CC1 [compound 825887]" group="0 (no)"
compound="O=C(CCCN1CCCN(c2csc3cc(F)ccc23)CC1)NC1CCCC1 [compound 826840]" group="1 (yes)"
compound="O=C(NC1CCCCCCCC1)[C@@H]1C[C@H]1CN1CCN(c2csc3cc(C(F)(F)F)ccc23)CC1 [compound 826655]" group="0 (no)"
compound="O=C(NC1CCC1)[C@@H]1C[C@H]1CN1CCN(c2csc3cc(C(F)(F)F)ccc23)CC1 [compound 826073]" group="0 (no)"
compound="COc1ccc(Cl)cc1N1CCN(CC2CC2C(=O)NC2CCC(C)CC2)CC1 (centres unmarked) [compound 817038]" group="1 (yes)"
compound="CCOC(=O)C1CCC(NC(=O)CCCN2CCN(c3csc4cc(F)ccc34)CC2Cc2ccccc2)CC1 (centres unmarked) [compound 827086]" group="0 (no)"
compound="CC1CCCC(NC(=O)CCCN2CCN(c3csc4cc(F)ccc34)CC2CCCc2ccccc2)C1 (centres unmarked) [compound 827108]" group="0 (no)"
